Recorded measurements of pIC50, one per entry
test.system: PARP1 (Homo sapiens)
Sequence (P09874 whole entry): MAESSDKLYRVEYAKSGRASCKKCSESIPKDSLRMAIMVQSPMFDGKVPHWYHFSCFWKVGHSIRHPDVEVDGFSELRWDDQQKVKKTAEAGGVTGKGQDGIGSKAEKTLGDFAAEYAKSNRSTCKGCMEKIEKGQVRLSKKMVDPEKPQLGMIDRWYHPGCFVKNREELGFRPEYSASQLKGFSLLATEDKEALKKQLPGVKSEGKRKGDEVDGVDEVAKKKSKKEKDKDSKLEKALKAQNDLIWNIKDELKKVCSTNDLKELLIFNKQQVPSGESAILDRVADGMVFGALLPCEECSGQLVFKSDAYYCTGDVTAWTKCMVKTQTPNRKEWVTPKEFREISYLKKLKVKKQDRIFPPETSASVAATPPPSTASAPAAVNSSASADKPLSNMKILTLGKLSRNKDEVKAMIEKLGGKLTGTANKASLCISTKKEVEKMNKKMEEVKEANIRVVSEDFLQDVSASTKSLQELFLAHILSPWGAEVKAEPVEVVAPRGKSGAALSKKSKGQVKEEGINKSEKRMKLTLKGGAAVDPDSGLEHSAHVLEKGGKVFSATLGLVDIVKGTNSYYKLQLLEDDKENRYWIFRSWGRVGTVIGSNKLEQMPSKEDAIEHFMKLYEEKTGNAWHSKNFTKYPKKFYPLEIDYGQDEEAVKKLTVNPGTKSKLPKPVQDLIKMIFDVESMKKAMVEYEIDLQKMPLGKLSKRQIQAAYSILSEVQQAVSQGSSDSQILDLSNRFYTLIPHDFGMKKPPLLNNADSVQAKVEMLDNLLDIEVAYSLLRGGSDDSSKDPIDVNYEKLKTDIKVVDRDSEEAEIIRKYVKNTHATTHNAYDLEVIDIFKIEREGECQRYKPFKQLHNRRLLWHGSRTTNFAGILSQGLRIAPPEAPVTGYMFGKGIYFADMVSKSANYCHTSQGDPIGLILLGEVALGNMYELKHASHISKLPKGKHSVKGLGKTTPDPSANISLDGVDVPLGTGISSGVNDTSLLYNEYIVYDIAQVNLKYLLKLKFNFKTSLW
assay.summary: PARP trapping assay in U2OS cells
Format: cell-based
Parameters: endogenous in cells; host or cells: U2OS
condition.info: U2OS cells, MMS, 4 hrs; read-out: PARP Trapping (U2OS)
pIC50: −log10 of the molar value.

Cc1sc(CN2CCCC2c2nnc3n2CCCCC3)nc1C12CC(C(=O)NCCOCCOCCOCCOCCNCC(=O)N3CCN(C(=O)c4cc(Cc5n[nH]c(=O)c6ccccc56)ccc4F)CC3)(C1)C2 (stereo not drawn) :: 5.00 to 6.00

Report pIC50, nothing else, for this compound: `O=C(CN1CCC(OC2CCN(C(=O)c3ncc(-c4ccccc4)cc3F)CC2)CC1)N1CCN(C(=O)c2cc(Cc3n[nH]c(=O)c4ccccc34)ccc2F)CC1`
7.00 to 8.00

Identify the reported pIC50 for the following entry. `CCc1cccc(-c2cc(F)c(C(=O)N3CCC(CN4CCN(CC(=O)N5CCN(C(=O)c6cc(Cc7n[nH]c(=O)c8ccccc78)ccc6F)CC5)CC4)CC3)c(F)c2)c1`
7.00 to 8.00
